test: Cmax in Beagle dog at 100 mg/kg, po administered as spray dried dispersion
Assay type: ADME, organism-based, Canis lupus familiaris
Set-up: dose 100 mg/kg, route oral
measurement-conditions: in vivo
measure-name: Cmax

Cc1c(Oc2ccc(-n3cnnn3)cc2F)ncnc1N1C2CC3CC1CC(C2)N3C(=O)OC1(C)CC1    6030 ng/mL

* * *

test: Oral bioavailability in Sprague-Dawley rat at 30 mg/kg administered as spray dried dispersion
Format: ADME, organism-based
measurement-conditions: in vivo
measure-name: bioavailability

Cc1c(Oc2ccc(-n3cnnn3)cc2F)ncnc1N1C2CC3CC1CC(C2)N3C(=O)OC1(C)CC1    > 100%
